List of EC50 values.
# assayed target: T1, cynomolgus CCR8 (cynomolgus, UniProt G7NYJ2 1-355)
# T1 construct: whole, on cells; also called HEK293-Cynomolgus CCR8; ExpiCHO-S cynomolgus CCR8
# T1 sequence (G7NYJ2 entry or part of it): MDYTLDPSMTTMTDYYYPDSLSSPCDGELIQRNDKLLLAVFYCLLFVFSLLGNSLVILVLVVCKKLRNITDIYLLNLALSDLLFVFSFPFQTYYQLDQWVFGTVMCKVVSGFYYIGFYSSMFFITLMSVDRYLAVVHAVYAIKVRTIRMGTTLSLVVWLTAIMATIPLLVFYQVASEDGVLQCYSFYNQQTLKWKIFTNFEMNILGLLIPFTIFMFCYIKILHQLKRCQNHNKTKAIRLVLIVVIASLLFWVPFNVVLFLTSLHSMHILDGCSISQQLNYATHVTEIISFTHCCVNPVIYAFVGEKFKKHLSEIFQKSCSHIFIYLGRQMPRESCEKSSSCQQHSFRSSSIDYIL
# assay name: FACS on HEK293-Cynomolgus CCR8 cells
Give just the number in nM; leave the unit off.

1. 160D1E3 (antibody, V domains shown, Murine hybridoma antibody) VH: EVQLVESGGGLVQPKGSLKLSCAASGFTFNTYAMNWVRQAPGKGLEWVARIRSKSNYYATYYADSVKDRFTISRDDSQDMLYLQMNNLKTEDTAIYYCVRGRDYGSSYAMDYWGQGTSVTVSS VL: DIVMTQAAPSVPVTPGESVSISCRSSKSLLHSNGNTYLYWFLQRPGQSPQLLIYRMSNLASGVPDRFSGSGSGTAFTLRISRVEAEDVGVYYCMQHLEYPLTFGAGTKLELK    0.422
2. 273H2G6 (antibody, V domains shown, Murine hybridoma antibody) VH: DVQLQESGPGLVKPSQSLSLTCSVTGYSITSGYYWNWIRQFPGNKLEWMGYISYDGSNNYNPSLKNRISITRDISKNQFFLKLNSVTTEDTATYYCARQVGLRRGAMDYWGQGTSVTVSS VL: DIQMTQSSSYLSVSLGGRVTITCKASDHINNWLAWYQQKPGNAPRLLISGSTSLKAGVASRFSGSGSGKDYTLSITSLQTEDVATYYCQQYWSIPYTFGGGTKLEIK    0.154
3. 204A2G12 (antibody, V domains shown, Murine hybridoma antibody) VH: DVQLQESGPGLVKPSQSLSLTCSVTGYSITSGYYWNWIRQFPGNKLEWMGYISYDGTNNYNPSLKNRISITRDTSKNQFFLKLTSVTTEDTATYYCARQVGLRRAWFAYWGQGTLVTVSA VL: DIQMTQSSSFLSVSLGGRVTITCKASDHINYWLAWYQQKPGNAPRLLISGATSLETGVPSRFSGSGSGKDYTLTITSLQNEDVATYYCHQYWSTPTFGSGTKLEIK    0.163
4. 149F2C10 (antibody, V domains shown, also called 1491F2C0) VH: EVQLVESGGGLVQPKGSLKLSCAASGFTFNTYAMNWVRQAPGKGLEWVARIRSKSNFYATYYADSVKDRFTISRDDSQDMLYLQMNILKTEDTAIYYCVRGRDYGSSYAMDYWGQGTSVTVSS VL: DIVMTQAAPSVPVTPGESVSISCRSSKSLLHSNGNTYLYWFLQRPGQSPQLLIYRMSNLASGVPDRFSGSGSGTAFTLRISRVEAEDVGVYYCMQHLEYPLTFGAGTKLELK    0.479
5. 153D4G2 (antibody, V domains shown, Murine hybridoma antibody; also called 153D3G2; 1531D4G2) VH: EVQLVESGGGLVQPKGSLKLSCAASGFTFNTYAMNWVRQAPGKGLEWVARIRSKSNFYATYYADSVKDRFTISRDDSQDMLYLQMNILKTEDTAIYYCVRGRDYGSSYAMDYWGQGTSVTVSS VL: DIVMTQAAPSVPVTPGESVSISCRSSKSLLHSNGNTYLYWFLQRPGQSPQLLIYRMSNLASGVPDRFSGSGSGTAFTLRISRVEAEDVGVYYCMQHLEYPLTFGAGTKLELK    0.699
6. 234G9C12 (antibody, V domains shown, Murine hybridoma antibody; also called 234G4C12) VH: DVQLQESGPGLVKPSQSLSLTCSVTGYSITSGYYWNWIRQFPGNKLEWMGYTSYDGSNNYNPSFKNRISITRDISKNQFFLKLNSVTTEDTATYYCARQIGLRRGAMDHWGQGTSVTVSS VL: DIQMTQSSSYLSVSLGGRVTITCKASDHINNWLAWYQQKPGNAPRLLISGSTSLRAGVASRFSGSGSGKDYTLTITSLQTEDVATYYCQQYWGIPFTFGGGTKLEIK    0.212
7. 164G10D6 (antibody, V domains shown, Murine hybridoma antibody; also called 164G10C6) VH: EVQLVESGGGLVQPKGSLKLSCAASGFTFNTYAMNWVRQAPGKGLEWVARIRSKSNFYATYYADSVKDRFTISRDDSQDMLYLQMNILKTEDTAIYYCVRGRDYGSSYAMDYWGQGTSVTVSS VL: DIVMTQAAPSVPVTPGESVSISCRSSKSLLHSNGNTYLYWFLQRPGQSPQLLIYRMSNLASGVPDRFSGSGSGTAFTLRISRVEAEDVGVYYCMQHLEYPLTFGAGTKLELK    0.32
8. 191E12H8 (antibody, V domains shown, Murine hybridoma antibody) VH: DVQLQESGPGLVKPSQSLSLTCSVTGYSITSGYYWNWIRQFPGNKLEWMGYISYDGSNNYNPSLKNRISITRDISKNQFFLKLNSVTTEDTATYYCARQIGLRRGAMDYWGQGTSVTVSS VL: DIQMTQSSSYLSVSLGGRVTITCKASDHINTWLAWYQQKPGNAPRLLISGSTSLKAGVASRFSGSGSGKDYTLTITSLQTEDVATYYCQQYWGIPFTFGGGTKLEIK    0.397

Respond only with EC50 recorded for 262C2G7 (antibody, V domains shown, Murine hybridoma antibody) VH: DVHLQESGPGLVKPSQSLSLTCSVTGYSITSGYYWNWIRQFPGNKLEWMGYISYDGSNNYNPSLKNRISITRDISKNQFFLKLNSVTTEDTATYYCARQIGLRRGAMDYWGQGTSVTVSS VL: DIQMTQSSSYLSVSLGGRVTITCKASDHINNWLAWYQQKPGNAPRLLISGSTSLKAGVASRFSGSGSGKDYTLTITSLQTEDVATYYCQQYWGIPFTFGGGTKLEIK
0.216
